- System: Escherichia coli
- testName: Binding affinity to […] Escherichia coli FimH-lectine domain assessed as melting temperature at 100 uM by differential scanning fluorometric assay
observedProperty: Tm (°C)
Give just the numeric value; °C need not be written.

Would you kindly share the measured Tm for COc1ccccc1-c1ccc(O[C@H]2O[C@H](CO)[C@@H](O)[C@H](O)[C@@H]2O)cc1 ?
70.7

# get_value(readout='Tm', item= COc1cccc(-c2ccc(O[C@H]3O[C@H](CO)[C@@H](O)[C@H](O)[C@@H]3O)cc2)c1 )
71.8

Would you mind telling me what Tm value was observed for OC[C@H]1O[C@H](Oc2ccccc2)[C@@H](O)[C@@H](O)[C@@H]1O ?
68.9

Quick one: Tm of OC[C@H]1O[C@H](Oc2ccc(-c3cccc(C(F)(F)F)c3)cc2)[C@@H](O)[C@@H](O)[C@@H]1O ?
68.3

What value of measured Tm is listed for COC(=O)c1cccc(-c2ccc(O[C@H]3O[C@H](CO)[C@@H](O)[C@H](O)[C@@H]3O)cc2)c1 ?
73.4

Dear colleague, I am looking for the recorded Tm of the following compound: COC(=O)c1cc(C(=O)OC)cc(-c2ccc(O[C@H]3O[C@H](CO)[C@@H](O)[C@H](O)[C@@H]3O)cc2)c1
72.5

Item under review: COC(=O)c1cccc(O[C@H]2O[C@H](CO)[C@@H](O)[C@H](O)[C@@H]2O)c1 . Reported Tm?
70.8

Entry OC[C@H]1O[C@H](Oc2ccc3ccccc3c2)[C@@H](O)[C@@H](O)[C@@H]1O : reported Tm = ?
70.8

Look up Tm for this compound: CNC(=O)c1cc(C(=O)NC)cc(-c2ccc(O[C@H]3O[C@H](CO)[C@@H](O)[C@H](O)[C@@H]3O)c(C)c2)c1
75.8

Report Tm for O=C(O)c1cccc(-c2ccc(O[C@H]3O[C@H](CO)[C@@H](O)[C@H](O)[C@@H]3O)cc2)c1 please.
70.9

Requested read-out: Tm. Entry: CNC(=O)c1cccc(-c2ccc(O[C@H]3O[C@H](CO)[C@@H](O)[C@H](O)[C@@H]3O)c(C)c2)c1
74.5

Request the reported Tm associated with OC[C@H]1O[C@H](Oc2ccc(-c3ccccc3)cc2)[C@@H](O)[C@@H](O)[C@@H]1O
71.2

Request the reported Tm associated with OCc1cccc(-c2ccc(O[C@H]3O[C@H](CO)[C@@H](O)[C@H](O)[C@@H]3O)cc2)c1
71.2

Form field: reported Tm of CC(=O)Nc1cccc(-c2ccc(O[C@H]3O[C@H](CO)[C@@H](O)[C@H](O)[C@@H]3O)cc2)c1
72.3

Can you look up the measured Tm of CS(=O)(=O)Nc1cccc(-c2ccc(O[C@H]3O[C@H](CO)[C@@H](O)[C@H](O)[C@@H]3O)cc2)c1 for me?
70.9

Form field: reported Tm of NC(=O)c1cccc(-c2ccc(O[C@H]3O[C@H](CO)[C@@H](O)[C@H](O)[C@@H]3O)cc2)c1
71.7

Bench note: what Tm did COC(=O)c1cc(O[C@H]2O[C@H](CO)[C@@H](O)[C@H](O)[C@@H]2O)cc(C(=O)OC)c1 show?
73.2

* * *

- testName: Effective permeability of the compound by PAMPA assay
- Type: ADME
- Parameters: unit not given here
observedProperty: log Pe

Consider the compound CNC(=O)c1cc(C(=O)NC)cc(-c2ccc(O[C@H]3O[C@H](CO)[C@@H](O)[C@H](O)[C@@H]3O)c(C(F)(F)F)c2)c1 and give its measured log Pe.
-6.27

Quick one: log Pe for CNC(=O)c1cc(C(=O)NC)cc(-c2ccc(O[C@H]3O[C@H](CO)[C@@H](O)[C@H](O)[C@@H]3O)c(C)c2)c1 ?
-8.46

Fill in: log Pe of COC(=O)c1cccc(-c2ccc(O[C@H]3O[C@H](CO)[C@@H](O)[C@H](O)[C@@H]3O)cc2C(=O)OC)c1 is ___
-4.08

Would you mind telling me what log Pe value was observed for CNC(=O)c1cccc(-c2ccc(O[C@H]3O[C@H](CO)[C@@H](O)[C@H](O)[C@@H]3O)c(C)c2)c1 ?
-3.89

* * *

Answer each item with its documented Tm.
- System: Escherichia coli
- testName: Binding affinity to […] Escherichia coli FimH-lectine domain assessed as melting temperature at 100 uM by differential scanning fluorometric assay
Note: unit °C is implicit; provide only the numeric part.

Give the measured Tm of O=C(Nc1cccnc1)c1cccc(-c2ccc(O[C@H]3O[C@H](CO)[C@@H](O)[C@H](O)[C@@H]3O)cc2)c1 .
72.5

Name the recorded Tm for CNC(=O)c1cc(C(=O)NC)cc(-c2ccc(O[C@H]3O[C@H](CO)[C@@H](O)[C@H](O)[C@@H]3O)cc2)c1 .
74.4

Looking for the measured Tm of CNC(=O)c1cc(C(=O)NC)cc(-c2ccc(O[C@H]3O[C@H](CO)[C@@H](O)[C@H](O)[C@@H]3O)c(C(F)(F)F)c2)c1 , can you help?
76.2

Look at this molecule and give its reported Tm. CNS(=O)(=O)c1cccc(-c2ccc(O[C@H]3O[C@H](CO)[C@@H](O)[C@H](O)[C@@H]3O)cc2)c1
72

Name the reported Tm value associated with the molecule COC(=O)c1cc(-c2ccc(O[C@H]3O[C@H](CO)[C@@H](O)[C@H](O)[C@@H]3O)cc2)ccn1
73.7

Which Tm is reported for this molecule? CNC(=O)c1cccc(-c2ccc(O[C@H]3O[C@H](CO)[C@@H](O)[C@H](O)[C@@H]3O)c(C(F)(F)F)c2)c1
72.3

Need Tm of O=C(O)c1cc(C(=O)O)cc(-c2ccc(O[C@H]3O[C@H](CO)[C@@H](O)[C@H](O)[C@@H]3O)cc2)c1 , thanks.
72.4

I am curious: what Tm value has been reported for CNC(=O)c1cccc(-c2ccc(O[C@H]3O[C@H](CO)[C@@H](O)[C@H](O)[C@@H]3O)cc2)c1 ?
73.4

* * *

Please respond with reported concentration at 6 h for every item in the list.
- testName: Drug level in mouse urine at 50 mg/kg, po measured after 6 hrs
- Format: ADME, organism-based
- Design: dose 50 mg/kg, route oral
- conditionDetails: read-out: Drug uptake
Number only, in nM; omit the unit.

Look at this compound and give its reported concentration at 6 h. CNC(=O)c1cc(C(=O)NC)cc(-c2ccc(O[C@H]3O[C@H](CO)[C@@H](O)[C@H](O)[C@@H]3O)c(C(F)(F)F)c2)c1
890

If you can, please state the reported concentration at 6 h value of CNC(=O)c1cccc(-c2ccc(O[C@H]3O[C@H](CO)[C@@H](O)[C@H](O)[C@@H]3O)c(C)c2)c1 .
4370
